assay details: Cytotoxicity against human MDA-MB-435/LCC6MDR1 cells assessed as growth inhibition after 48 hrs by SRB assay
Type: functional, cell-based, MDA-MB-435/LCC6 MDR1
experimental context: mda-mb-435/lcc6 mdr1
recorded metric: IC50

Which IC50 is reported for this compound? COc1cc(C(=O)c2c[nH]c(-c3ccc(C)cc3)n2)cc(OC)c1OC
0.011 µM

----------
assay details: Cytotoxicity against human MDA-MB-435/LCC6MDR1 cells assessed as growth inhibition after 48 hrs by SRB assay
Type: functional, cell-based, MDA-MB-435/LCC6 MDR1
experimental context: Homo sapiens, MDA-MB-435/LCC6 MDR1, 48 h
Measured pIC50, listed per entry.
Bear in mind: pIC50 is minus log10 of a mol/L concentration; give just that figure.

structure as smiles | pIC50
CCCn1cc(-c2ccccc2)nc1C(=O)c1cc(OC)c(OC)c(OC)c1 | 7.36

Bench note: what pIC50 did CCCc1[nH]c(C(=O)c2cc(OC)c(OC)c(OC)c2)nc1-c1ccccc1 show?
4.85

Returns the measured pIC50 for the input compound. Input: Cc1ccc(C(=O)c2nc(-c3ccc(C)cc3)c[nH]2)cc1
5.49

Given the compound COc1cc(C(=O)c2c[nH]c(-c3ccc(C(C)(C)C)cc3)n2)cc(OC)c1OC , what is its reported pIC50?
5.51

# input compound: COc1cc(C(=O)c2nc(-c3ccc(C)cc3)c[nH]2)cc(OC)c1OC ; wanted: its pIC50
7.68

Fill in: pIC50 of COc1ccc(C(=O)c2nc(-c3cc(OC)c(OC)c(OC)c3)c[nH]2)cc1 is ___
4.94
